Recorded Selectivity for PI3Kα vs. PI3K-β, one value per entry.
Biological target: UniProt P42336
Experiment: PI3K binding assay (lipid kinase reaction, ADP-Glo), PI3K alpha
Format: biochemical
Conditions: Table 2A; selectivity ratio (fold)
Lab note: record just the number, no unit beside it.

Please review the following examples before continuing.
[
  {
    "structure string": "C[C@@H]1COC(=O)N1c1cn2c(n1)-c1ccc(N3CCC[C@H]3C(N)=O)cc1OCC2",
    "Selectivity for PI3Kα vs. PI3K-β": 745
  },
  {
    "structure string": "C[C@H](Oc1ccc2c(c1)OCCn1cc(N3C(=O)OC[C@H]3C(F)F)nc1-2)C(N)=O",
    "Selectivity for PI3Kα vs. PI3K-β": 400
  },
  {
    "structure string": "NC(=O)[C@@H]1CCCN1c1ccc2c(c1)OCCn1cc(N3C(=O)OC[C@H]3C(F)(F)F)nc1-2",
    "Selectivity for PI3Kα vs. PI3K-β": 698
  },
  {
    "structure string": "CC(C)[C@@H]1COC(=O)N1c1cn2c(n1)-c1ccc(O[C@@H](C)C(N)=O)cc1OCC2",
    "Selectivity for PI3Kα vs. PI3K-β": 488
  },
  {
    "structure string": "NC(=O)[C@@H]1CCCN1c1ccc2c(c1)OCCn1cc(N3C(=O)OC[C@H]3C(F)F)nc1-2",
    "Selectivity for PI3Kα vs. PI3K-β": 1008
  }
]

Shifting focus to the molecule that follows.
Task item: Look up and state reported Selectivity for PI3Kα vs. PI3K-β for `NC(=O)[C@@H]1CCCN1c1ccc2c(c1)OCCn1cc(N3C(=O)OC[C@H]3CF)nc1-2`
Reply: 1421

* * *

Molecular target: PI3Kα (Homo sapiens)
Experiment: PI3K binding assay (lipid kinase reaction, ADP-Glo), PI3K alpha
Format: biochemical
Procedure: Reactions are carried out using the following conditions for each PI3K isoform as in Table 5. All reactions are carried out at room temperature. […] The reaction is started by the addition of 2 μL ATP/MgCl2. […] Plates are read in a Perkin Elmer Envision system using luminescence mode. […] Ki values for each compound are determined using the Morrison Equation.
measurement label: Selectivity for PI3Kα vs. PI3Kδ

Worked examples, 3 compounds total:
[
  {
    "compound": "C[C@H](Oc1ccc2c(c1)OCCn1cc(N3C(=O)OC[C@H]3C(F)(F)F)nc1-2)C(N)=O [Compound 105]",
    "measurement target": "PI3Kα (Homo sapiens)",
    "value": 15
  },
  {
    "compound": "CC(C)(O)Cn1cc(-c2ccc3c(c2)OCCc2sc(N4C(=O)OCC4(C)C)nc2-3)cn1 [356 (U.S. Pat. No. 8,263,633), reference compound]",
    "measurement target": "PI3Kα (Homo sapiens)",
    "value": 1
  },
  {
    "compound": "C[C@H](Oc1ccc2c(c1)OCCn1cc(N3C(=O)OC[C@H]3CF)nc1-2)C(N)=O [Compound 109]",
    "measurement target": "PI3Kα (Homo sapiens)",
    "value": 31
  }
]

Task item: Name the recorded Selectivity for PI3Kα vs. PI3Kδ of the item CC[C@@H]1COC(=O)N1c1cn2c(n1)-c1ccc(O[C@@H](C)C(N)=O)cc1OCC2 [Compound 104] in your answer.
Reply: 19

* * *

Biological target: PI3Kα (Homo sapiens, UniProt P42336)
Sequence (P42336 whole entry): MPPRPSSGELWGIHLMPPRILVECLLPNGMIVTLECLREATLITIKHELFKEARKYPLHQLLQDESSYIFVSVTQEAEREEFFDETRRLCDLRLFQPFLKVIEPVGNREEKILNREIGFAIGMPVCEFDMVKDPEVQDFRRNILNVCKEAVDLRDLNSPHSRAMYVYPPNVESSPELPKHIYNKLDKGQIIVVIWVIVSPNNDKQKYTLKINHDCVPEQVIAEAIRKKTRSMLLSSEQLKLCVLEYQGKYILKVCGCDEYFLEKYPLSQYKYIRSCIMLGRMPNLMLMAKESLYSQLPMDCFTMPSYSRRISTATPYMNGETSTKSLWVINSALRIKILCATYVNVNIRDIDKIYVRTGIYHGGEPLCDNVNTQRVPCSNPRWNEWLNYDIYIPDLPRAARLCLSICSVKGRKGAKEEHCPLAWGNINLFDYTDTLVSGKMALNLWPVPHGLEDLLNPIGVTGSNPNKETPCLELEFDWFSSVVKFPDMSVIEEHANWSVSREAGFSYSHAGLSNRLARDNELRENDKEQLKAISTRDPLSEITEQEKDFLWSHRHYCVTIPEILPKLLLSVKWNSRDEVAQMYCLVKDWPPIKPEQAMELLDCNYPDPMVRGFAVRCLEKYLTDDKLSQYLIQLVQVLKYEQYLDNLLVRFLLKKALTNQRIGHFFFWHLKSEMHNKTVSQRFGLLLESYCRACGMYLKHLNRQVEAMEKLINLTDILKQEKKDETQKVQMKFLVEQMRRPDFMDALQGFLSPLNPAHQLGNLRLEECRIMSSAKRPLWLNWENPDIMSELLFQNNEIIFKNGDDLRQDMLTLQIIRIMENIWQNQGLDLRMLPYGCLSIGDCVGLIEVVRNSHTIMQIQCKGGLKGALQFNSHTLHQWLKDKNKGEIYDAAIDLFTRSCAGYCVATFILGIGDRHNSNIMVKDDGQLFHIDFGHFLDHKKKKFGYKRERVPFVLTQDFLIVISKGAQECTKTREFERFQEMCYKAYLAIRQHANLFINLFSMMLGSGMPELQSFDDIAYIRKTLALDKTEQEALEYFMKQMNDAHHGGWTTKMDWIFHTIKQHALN
Sequence (P27986 whole entry partner): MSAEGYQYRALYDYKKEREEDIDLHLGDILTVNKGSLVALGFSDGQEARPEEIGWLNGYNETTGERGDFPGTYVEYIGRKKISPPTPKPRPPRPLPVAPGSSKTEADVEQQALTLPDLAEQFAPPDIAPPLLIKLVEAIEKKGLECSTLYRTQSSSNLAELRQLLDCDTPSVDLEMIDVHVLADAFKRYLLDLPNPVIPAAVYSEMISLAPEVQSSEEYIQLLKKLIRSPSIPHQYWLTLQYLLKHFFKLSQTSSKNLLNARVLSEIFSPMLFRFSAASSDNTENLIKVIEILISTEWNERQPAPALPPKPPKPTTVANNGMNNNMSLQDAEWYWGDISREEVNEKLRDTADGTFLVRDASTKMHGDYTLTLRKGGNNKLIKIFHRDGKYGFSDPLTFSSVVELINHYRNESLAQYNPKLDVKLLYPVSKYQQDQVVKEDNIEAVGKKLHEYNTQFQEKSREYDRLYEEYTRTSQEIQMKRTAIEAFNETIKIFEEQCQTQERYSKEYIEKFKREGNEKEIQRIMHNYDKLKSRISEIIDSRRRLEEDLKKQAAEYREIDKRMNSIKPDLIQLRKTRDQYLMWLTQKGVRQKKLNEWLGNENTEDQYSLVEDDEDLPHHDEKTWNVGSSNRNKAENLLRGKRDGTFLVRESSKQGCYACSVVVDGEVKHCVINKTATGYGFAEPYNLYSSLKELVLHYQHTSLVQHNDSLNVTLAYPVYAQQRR
Experiment: PI3K binding assay (lipid kinase reaction, ADP-Glo), PI3K alpha
Assay type: biochemical
Conditions: Table 2A; selectivity ratio (fold)
Description: Reactions are carried out using the following conditions for each PI3K isoform as in Table 5. All reactions are carried out at room temperature. […] The reaction is started by the addition of 2 μL ATP/MgCl2. […] Plates are read in a Perkin Elmer Envision system using luminescence mode. […] Ki values for each compound are determined using the Morrison Equation.
measurement label: Selectivity for PI3Kα vs. PI3Kδ
API note: the answer field is a bare number with no unit suffix.

The cases that follow already have their Selectivity for PI3Kα vs. PI3Kδ on record.
[
  {
    "structure string": "NC(=O)[C@@H]1CCCN1c1ccc2c(c1)OCCn1cc(N3C(=O)OC[C@H]3C(F)F)nc1-2",
    "Selectivity for PI3Kα vs. PI3Kδ": 34
  },
  {
    "structure string": "NC(=O)[C@@H]1CCCN1c1ccc2c(c1)OCCn1cc(N3C(=O)OC[C@H]3CF)nc1-2",
    "Selectivity for PI3Kα vs. PI3Kδ": 46
  },
  {
    "structure string": "C[C@@H]1COC(=O)N1c1cn2c(n1)-c1ccc(N3CCC[C@H]3C(N)=O)cc1OCC2",
    "Selectivity for PI3Kα vs. PI3Kδ": 24
  },
  {
    "structure string": "CC(C)[C@@H]1COC(=O)N1c1cn2c(n1)-c1ccc(O[C@@H](C)C(N)=O)cc1OCC2",
    "Selectivity for PI3Kα vs. PI3Kδ": 23
  }
]

Task item: Please report the measured Selectivity for PI3Kα vs. PI3Kδ for `C[C@H](Oc1ccc2c(c1)OCCn1cc(N3C(=O)OC[C@H]3C(F)F)nc1-2)C(N)=O` tested on PI3Kα (Homo sapiens, UniProt P42336).
Reply: 52

Task item: Provide PI3Kα (Homo sapiens, UniProt P42336) Selectivity for PI3Kα vs. PI3Kδ reading for `NC(=O)[C@@H]1CCCN1c1ccc2c(c1)OCCn1cc(N3C(=O)OC[C@H]3C(F)(F)F)nc1-2` .
Reply: 15

* * *

Target: PI3Kα (Homo sapiens, UniProt P42336)
Assay: PI3K binding assay (lipid kinase reaction, ADP-Glo), PI3K alpha
Type: biochemical
Conditions: Table 2A; first value of cell (ADP-Glo, Example 901); read-out: PI3Kα Ki
pKi values by entry
Please express pKi as -log10 of the molar concentration.

Task item: Specify measured pKi for `C[C@H](Oc1ccc2c(c1)OCCn1cc(N3C(=O)OC[C@H]3C(F)(F)F)nc1-2)C(N)=O` .
Reply: 8.56

* * *

Molecular target: PI3Kγ (Homo sapiens, UniProt P48736)
Sequence (P48736 whole entry): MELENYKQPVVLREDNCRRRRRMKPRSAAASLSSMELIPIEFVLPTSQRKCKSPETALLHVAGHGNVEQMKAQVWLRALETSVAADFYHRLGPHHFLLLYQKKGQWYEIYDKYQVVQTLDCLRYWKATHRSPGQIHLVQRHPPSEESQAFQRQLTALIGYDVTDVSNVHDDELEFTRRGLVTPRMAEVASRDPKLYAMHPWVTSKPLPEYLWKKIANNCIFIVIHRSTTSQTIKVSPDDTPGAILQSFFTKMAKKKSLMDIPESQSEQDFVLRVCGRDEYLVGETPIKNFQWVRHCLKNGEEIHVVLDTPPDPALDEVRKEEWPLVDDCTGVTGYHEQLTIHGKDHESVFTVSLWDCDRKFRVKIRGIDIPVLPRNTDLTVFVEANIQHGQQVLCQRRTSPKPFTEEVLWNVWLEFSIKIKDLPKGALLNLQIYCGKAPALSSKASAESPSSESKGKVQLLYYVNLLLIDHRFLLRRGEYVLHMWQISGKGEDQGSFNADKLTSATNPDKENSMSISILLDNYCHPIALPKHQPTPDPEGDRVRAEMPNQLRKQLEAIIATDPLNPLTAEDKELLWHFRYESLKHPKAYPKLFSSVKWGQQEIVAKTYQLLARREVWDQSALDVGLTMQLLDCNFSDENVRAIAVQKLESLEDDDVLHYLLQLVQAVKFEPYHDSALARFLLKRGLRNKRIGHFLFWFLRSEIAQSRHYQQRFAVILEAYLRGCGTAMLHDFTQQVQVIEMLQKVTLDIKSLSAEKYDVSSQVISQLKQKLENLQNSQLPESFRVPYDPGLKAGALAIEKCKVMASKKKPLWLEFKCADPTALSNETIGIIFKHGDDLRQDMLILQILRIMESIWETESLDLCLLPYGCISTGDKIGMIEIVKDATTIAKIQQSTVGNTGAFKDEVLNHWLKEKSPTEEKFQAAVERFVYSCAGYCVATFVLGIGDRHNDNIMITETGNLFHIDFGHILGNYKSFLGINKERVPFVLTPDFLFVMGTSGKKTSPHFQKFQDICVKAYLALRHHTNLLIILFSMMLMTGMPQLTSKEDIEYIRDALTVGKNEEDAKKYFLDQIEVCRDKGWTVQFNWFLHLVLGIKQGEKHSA
Assay: PI3K binding assay (lipid kinase reaction, ADP-Glo), PI3K gamma
Type: biochemical
Settings: Table 2A; first value of cell (ADP-Glo, Example 901)
Could you mark each record condition met if its Ki falls strictly under 70 nM, and condition not met if it equals or exceeds it?

[
  {
    "structure string": "C[C@H](Oc1ccc2c(c1)OCCn1cc(N3C(=O)OC[C@H]3CF)nc1-2)C(N)=O",
    "class label": "condition not met"
  },
  {
    "structure string": "C[C@@H]1COC(=O)N1c1cn2c(n1)-c1ccc(N3CCC[C@H]3C(N)=O)cc1OCC2",
    "class label": "condition not met"
  },
  {
    "structure string": "C[C@H](Oc1ccc2c(c1)OCCn1cc(N3C(=O)OC[C@H]3C(F)(F)F)nc1-2)C(N)=O",
    "class label": "condition not met"
  },
  {
    "structure string": "NC(=O)[C@@H]1CCCN1c1ccc2c(c1)OCCn1cc(N3C(=O)OC[C@H]3CF)nc1-2",
    "class label": "condition met"
  }
]

Task item: Bench note: check whether `CC(C)[C@@H]1COC(=O)N1c1cn2c(n1)-c1ccc(O[C@@H](C)C(N)=O)cc1OCC2` shows Ki below 70 nM
Reply: condition not met

Task item: Ki strictly < 70 nM for this molecule? `NC(=O)[C@@H]1CCCN1c1ccc2c(c1)OCCn1cc(N3C(=O)OC[C@H]3C(F)(F)F)nc1-2`
Reply: condition met

Task item: I wonder whether `NC(=O)[C@@H]1CCCN1c1ccc2c(c1)OCCn1cc(N3C(=O)OC[C@H]3C(F)F)nc1-2` has Ki below 70 nM. Can you tell?
Reply: condition met

Task item: Given `C[C@H](Oc1ccc2c(c1)OCCn1cc(N3C(=O)OC[C@H]3C(F)F)nc1-2)C(N)=O` , is recorded Ki strictly lower than 70 nM?
Reply: condition not met

Task item: Identify whether the molecule `CC[C@@H]1COC(=O)N1c1cn2c(n1)-c1ccc(O[C@@H](C)C(N)=O)cc1OCC2` records Ki below 70 nM.
Reply: condition not met

* * *

Target: PI3Kα (Homo sapiens, UniProt P42336)
Test: PI3K binding assay (lipid kinase reaction, ADP-Glo), PI3K alpha
Type: biochemical
Settings: Table 2A; selectivity ratio (fold)
measurement label: Selectivity for PI3Kα vs. PI3Kγ
Please reply with the value in numeric form only.

[
  {
    "structure string": "C[C@@H]1COC(=O)N1c1cn2c(n1)-c1ccc(N3CCC[C@H]3C(N)=O)cc1OCC2",
    "measurement target": "PI3Kα (Homo sapiens, UniProt P42336)",
    "value": 366
  }
]

Task item: For the molecule `NC(=O)[C@@H]1CCCN1c1ccc2c(c1)OCCn1cc(N3C(=O)OC[C@H]3CF)nc1-2` , give its measured Selectivity for PI3Kα vs. PI3Kγ value.
Reply: 557

Task item: Respond only with Selectivity for PI3Kα vs. PI3Kγ recorded for `CC(C)[C@@H]1COC(=O)N1c1cn2c(n1)-c1ccc(O[C@@H](C)C(N)=O)cc1OCC2`
Reply: 91

Task item: State its Selectivity for PI3Kα vs. PI3Kγ: `NC(=O)[C@@H]1CCCN1c1ccc2c(c1)OCCn1cc(N3C(=O)OC[C@H]3C(F)(F)F)nc1-2`
Reply: 290

Task item: Specify measured Selectivity for PI3Kα vs. PI3Kγ for `C[C@H](Oc1ccc2c(c1)OCCn1cc(N3C(=O)OC[C@H]3C(F)F)nc1-2)C(N)=O` .
Reply: 159

Task item: Return the recorded Selectivity for PI3Kα vs. PI3Kγ value; entry: `NC(=O)[C@@H]1CCCN1c1ccc2c(c1)OCCn1cc(N3C(=O)OC[C@H]3C(F)F)nc1-2`
Reply: 384
